biological target: Fes (UniProt P07332); experiment: phosphorylation enrichment, bacterial display (enrichment ratio); higher = better substrate or ligand; peptides without Tyr show the background;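 also: 11-residue human phosphosite peptides and single-mutation variants displayed on the E. coli surface, counted by deep sequencing, each peptide's frequency after selection divided by its frequency in the unselected input library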;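 also: frequency after pTyr selection over input frequency; kinase dosed for 20-30% of maximal phosphorylation in three min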
Sequence (P07332 whole entry, looked up): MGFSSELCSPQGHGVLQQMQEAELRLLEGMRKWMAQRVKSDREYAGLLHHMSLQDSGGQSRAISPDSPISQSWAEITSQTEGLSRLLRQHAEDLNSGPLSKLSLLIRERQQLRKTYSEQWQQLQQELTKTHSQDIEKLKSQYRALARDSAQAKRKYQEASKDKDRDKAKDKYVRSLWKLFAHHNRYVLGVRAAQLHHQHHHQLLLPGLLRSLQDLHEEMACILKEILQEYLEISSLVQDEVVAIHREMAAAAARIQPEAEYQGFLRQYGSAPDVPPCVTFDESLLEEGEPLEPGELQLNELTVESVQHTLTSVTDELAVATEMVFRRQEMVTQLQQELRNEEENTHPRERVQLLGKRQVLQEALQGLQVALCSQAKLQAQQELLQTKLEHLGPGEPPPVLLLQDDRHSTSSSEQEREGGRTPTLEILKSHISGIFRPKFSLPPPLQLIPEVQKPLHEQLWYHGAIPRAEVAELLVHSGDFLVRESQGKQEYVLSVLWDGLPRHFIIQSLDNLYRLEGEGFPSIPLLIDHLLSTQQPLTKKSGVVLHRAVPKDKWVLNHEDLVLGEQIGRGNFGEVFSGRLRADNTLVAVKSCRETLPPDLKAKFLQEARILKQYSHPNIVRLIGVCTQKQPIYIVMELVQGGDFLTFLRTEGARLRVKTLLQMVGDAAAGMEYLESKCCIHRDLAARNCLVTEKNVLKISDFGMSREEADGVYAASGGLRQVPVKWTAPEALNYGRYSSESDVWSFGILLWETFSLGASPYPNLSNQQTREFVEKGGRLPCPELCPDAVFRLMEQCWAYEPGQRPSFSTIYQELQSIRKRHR
This listing pairs sequences with measured phosphorylation enrichment.
# print the numeric value only

Form: sequence = GPGLVYRVANK [FLNB_Y1833_G1834R] ; phosphorylation enrichment = 0.793

----------
molecular target: Fes (UniProt P07332); assay: phosphorylation enrichment, bacterial display (enrichment ratio); higher = better substrate or ligand; peptides without Tyr show the background
This listing pairs sequences with measured phosphorylation enrichment.
# print the numeric value only

{"columns": ["query-sequence", "tested-system", "data-value"],
 "data": [
  ["IFHLSYHHNCE [PDE6B_Y227_L228H_YF]", "Fes (UniProt P07332)", 1.18]
]}

Form: sequence = ATRDVYNPFET [SCAMP3_Y41_L38R] ; phosphorylation enrichment = 1.03

Form: sequence = HFEDGYPGGSD [CTNND1_Y221_YF] ; phosphorylation enrichment = 1.45

Form: sequence = LARDIYKNDFF [ROS1_Y2110_YF] ; phosphorylation enrichment = 2.15

Form: sequence = SENAFYLSPHI [COL6A3_Y2827_D2831H] ; phosphorylation enrichment = 0.887

Form: sequence = FKDYFYCWNTF [AICDA_Y146] ; phosphorylation enrichment = 1.34
